- protocol_text: Hemolytic activity
- Format: cell-based, Human
- test_context: human, human red blood cell suspension; hRBCs, 1 h at 37° C.; read-out: HD50, dose required to lyse 50% of the red blood cells
quantity_name: HC50 at 1 h

molecule	recorded_value
CC(=O)N[C@@H](CCCCN)c1nc(C)sc1C(=O)N[C@@H](CC(C)C)c1nc(CCCCN)sc1C(=O)N[C@@H](C)c1nc(CC(C)C)sc1C(=O)N[C@@H](CCCCN)c1nc(C)sc1C(=O)N[C@@H](CC(C)C)c1nc(CCCCN)sc1C(=O)N[C@@H](C)c1nc(CC(C)C)sc1C(=O)N[C@@H](CCCCN)c1nc(C)sc1C(=O)N[C@@H](CC(C)C)c1nc(CCCCN)sc1C(=O)N[C@@H](C)c1nc(CC(C)C)sc1C(N)=O [Oligomer 6]	23 µM
CC(=O)N[C@@H](CCCNC(=N)N)c1nc(C)sc1C(=O)N[C@@H](C)c1nc(CCCNC(=N)N)sc1C(=O)N[C@@H](C)c1nc(C)sc1C(=O)N[C@@H](CCCNC(=N)N)c1nc(C)sc1C(=O)N[C@@H](C)c1nc(CCCNC(=N)N)sc1C(=O)N[C@@H](C)c1nc(C)sc1C(=O)N[C@@H](CCCNC(=N)N)c1nc(C)sc1C(=O)N[C@@H](C)c1nc(CCCNC(=N)N)sc1C(=O)N[C@@H](C)c1nc(C)sc1C(N)=O [Oligomer 8]	> 100 µM
CC(=O)N[C@@H](CCCCN)c1nc(C)sc1C(=O)N[C@@H](C)c1nc(CCCCN)sc1C(=O)N[C@@H](C)c1nc(C)sc1C(=O)N[C@@H](CCCCN)c1nc(C)sc1C(=O)N[C@@H](C)c1nc(CCCCN)sc1C(=O)N[C@@H](C)c1nc(C)sc1C(=O)N[C@@H](CCCCN)c1nc(C)sc1C(=O)N[C@@H](C)c1nc(CCCCN)sc1C(=O)N[C@@H](C)c1nc(C)sc1C(N)=O [Oligomer 3]	> 100 µM

---

- System: Bacillus subtilis ATCC6633
- Assay type: cell-based
- test_context: ATCC6633, 24 h
Minimal inhibitory concentration (MIC) B. subtilis ATCC6633 values, listed per item
quantity_name: Minimal inhibitory concentration (MIC) B. subtilis ATCC6633 (µM)

given_smiles	target_or_test_system	units_of_measure	result_qualifier	recorded_value
CC(=O)N[C@@H](CCCCN)c1nc(C)sc1C(=O)N[C@@H](C)c1nc(C)sc1C(=O)N[C@@H](C)c1nc(CCCCN)sc1C(=O)N[C@@H](C)c1nc(C)sc1C(=O)N[C@@H](C)c1nc(CCCCN)sc1C(=O)N[C@@H](CCCCN)c1nc(C)sc1C(=O)N[C@@H](C)c1nc(CCCCN)sc1C(=O)N[C@@H](CCCCN)c1nc(C)sc1C(=O)N[C@@H](C)c1nc(C)sc1C(=O)N[C@@H](C)c1nc(C)sc1C(=O)N[C@@H](C)c1nc(CCCCN)sc1C(=O)N[C@@H](CCCCN)c1nc(C)sc1C(N)=O	Bacillus subtilis ATCC6633	µM	=	0.8
CC(=O)N[C@@H](CCCCN)c1nc(C)sc1C(=O)N[C@@H](C)c1nc(CCCCN)sc1C(=O)N[C@@H](C)c1nc(C)sc1C(N)=O	Bacillus subtilis ATCC6633	µM	>	150
CC(=O)N[C@@H](CCCCN)c1nc(C)sc1C(=O)N[C@@H](C)c1nc(CCCCN)sc1C(=O)N[C@@H](C)c1nc(C)sc1C(=O)N[C@@H](CCCCN)c1nc(C)sc1C(=O)N[C@@H](C)c1nc(CCCCN)sc1C(=O)N[C@@H](C)c1nc(C)sc1C(=O)N[C@@H](CCCCN)c1nc(C)sc1C(=O)N[C@@H](C)c1nc(CCCCN)sc1C(=O)N[C@@H](C)c1nc(C)sc1C(=O)N[C@@H](CCCCN)c1nc(C)sc1C(=O)N[C@@H](C)c1nc(CCCCN)sc1C(=O)N[C@@H](C)c1nc(C)sc1C(N)=O	Bacillus subtilis ATCC6633	µM	=	0.5
CC(=O)N[C@@H](CCCCN)c1nc(C)sc1C(=O)N[C@@H](C)c1nc(CCCCN)sc1C(=O)N[C@@H](C)c1nc(C)sc1C(=O)N[C@@H](CCCCN)c1nc(C)sc1C(=O)N[C@@H](C)c1nc(CCCCN)sc1C(=O)N[C@@H](C)c1nc(C)sc1C(=O)N[C@@H](CCCCN)c1nc(C)sc1C(=O)N[C@@H](C)c1nc(CCCCN)sc1C(=O)N[C@@H](C)c1nc(C)sc1C(N)=O	Bacillus subtilis ATCC6633	µM	=	0.8
CC(=O)N[C@@H](CCCNC(=N)N)c1nc(C)sc1C(=O)N[C@@H](C)c1nc(CCCNC(=N)N)sc1C(=O)N[C@@H](C)c1nc(C)sc1C(=O)N[C@@H](CCCNC(=N)N)c1nc(C)sc1C(=O)N[C@@H](C)c1nc(CCCNC(=N)N)sc1C(=O)N[C@@H](C)c1nc(C)sc1C(=O)N[C@@H](CCCNC(=N)N)c1nc(C)sc1C(=O)N[C@@H](C)c1nc(CCCNC(=N)N)sc1C(=O)N[C@@H](C)c1nc(C)sc1C(N)=O	Bacillus subtilis ATCC6633	µM	=	0.5
CC(=O)N[C@@H](CCCCN)c1nc(C)sc1C(=O)N[C@@H](CC(C)C)c1nc(CCCCN)sc1C(=O)N[C@@H](C)c1nc(CC(C)C)sc1C(=O)N[C@@H](CCCCN)c1nc(C)sc1C(=O)N[C@@H](CC(C)C)c1nc(CCCCN)sc1C(=O)N[C@@H](C)c1nc(CC(C)C)sc1C(=O)N[C@@H](CCCCN)c1nc(C)sc1C(=O)N[C@@H](CC(C)C)c1nc(CCCCN)sc1C(=O)N[C@@H](C)c1nc(CC(C)C)sc1C(=O)N[C@@H](CCCCN)c1nc(C)sc1C(=O)N[C@@H](CC(C)C)c1nc(CCCCN)sc1C(=O)N[C@@H](C)c1nc(CC(C)C)sc1C(N)=O	Bacillus subtilis ATCC6633	µM	=	4.2
CC(=O)N[C@@H](CCCNC(=N)N)c1nc(C)sc1C(=O)N[C@@H](C)c1nc(CCCNC(=N)N)sc1C(=O)N[C@@H](C)c1nc(C)sc1C(=O)N[C@@H](CCCNC(=N)N)c1nc(C)sc1C(=O)N[C@@H](C)c1nc(CCCNC(=N)N)sc1C(=O)N[C@@H](C)c1nc(C)sc1C(=O)N[C@@H](CCCNC(=N)N)c1nc(C)sc1C(=O)N[C@@H](C)c1nc(CCCNC(=N)N)sc1C(=O)N[C@@H](C)c1nc(C)sc1C(=O)N[C@@H](CCCNC(=N)N)c1nc(C)sc1C(=O)N[C@@H](C)c1nc(CCCNC(=N)N)sc1C(=O)N[C@@H](C)c1nc(C)sc1C(N)=O	Bacillus subtilis ATCC6633	µM	=	0.6
CC(=O)N[C@@H](CCCCN)c1nc(C)sc1C(=O)N[C@@H](C)c1nc(CCCCN)sc1C(=O)N[C@@H](C)c1nc(C)sc1C(=O)N[C@@H](CCCCN)c1nc(C)sc1C(=O)N[C@@H](C)c1nc(CCCCN)sc1C(=O)N[C@@H](C)c1nc(C)sc1C(N)=O	Bacillus subtilis ATCC6633	µM	=	30
CC(=O)N[C@@H](CCCCN)c1nc(C)sc1C(=O)N[C@@H](CC(C)C)c1nc(CCCCN)sc1C(=O)N[C@@H](C)c1nc(CC(C)C)sc1C(=O)N[C@@H](CCCCN)c1nc(C)sc1C(=O)N[C@@H](CC(C)C)c1nc(CCCCN)sc1C(=O)N[C@@H](C)c1nc(CC(C)C)sc1C(=O)N[C@@H](CCCCN)c1nc(C)sc1C(=O)N[C@@H](CC(C)C)c1nc(CCCCN)sc1C(=O)N[C@@H](C)c1nc(CC(C)C)sc1C(N)=O	Bacillus subtilis ATCC6633	µM	=	1.3

---

Minimal inhibitory concentration (MIC) C. albicans ATCC10231 values, listed per item
- System: Candida albicans ATCC10231
- Format: cell-based
- test_context: ATCC10231, 48 h
- Experimental: Minimal inhibitory concentration (MIC) values and minimal bactericidal concentration (MBCs) values for ATC-peptides 1-9 were determined against both Gram-positive (Bacillus subtilis, Staphylococcus aureus, Enterococcus faecalis) and Gram negative (Escherichia coli, Pseudomonas aeruginosa) bacteria as well as a yeast (Candida albicans). Experiments were conducted in triplicate. […]
quantity_name: Minimal inhibitory concentration (MIC) C. albicans ATCC10231 (µM)

given_smiles	recorded_value
CC(=O)N[C@@H](CCCCN)c1nc(C)sc1C(=O)N[C@@H](CC(C)C)c1nc(CCCCN)sc1C(=O)N[C@@H](C)c1nc(CC(C)C)sc1C(=O)N[C@@H](CCCCN)c1nc(C)sc1C(=O)N[C@@H](CC(C)C)c1nc(CCCCN)sc1C(=O)N[C@@H](C)c1nc(CC(C)C)sc1C(=O)N[C@@H](CCCCN)c1nc(C)sc1C(=O)N[C@@H](CC(C)C)c1nc(CCCCN)sc1C(=O)N[C@@H](C)c1nc(CC(C)C)sc1C(=O)N[C@@H](CCCCN)c1nc(C)sc1C(=O)N[C@@H](CC(C)C)c1nc(CCCCN)sc1C(=O)N[C@@H](C)c1nc(CC(C)C)sc1C(N)=O	25
CC(=O)N[C@@H](CCCCN)c1nc(C)sc1C(=O)N[C@@H](C)c1nc(CCCCN)sc1C(=O)N[C@@H](C)c1nc(C)sc1C(=O)N[C@@H](CCCCN)c1nc(C)sc1C(=O)N[C@@H](C)c1nc(CCCCN)sc1C(=O)N[C@@H](C)c1nc(C)sc1C(=O)N[C@@H](CCCCN)c1nc(C)sc1C(=O)N[C@@H](C)c1nc(CCCCN)sc1C(=O)N[C@@H](C)c1nc(C)sc1C(=O)N[C@@H](CCCCN)c1nc(C)sc1C(=O)N[C@@H](C)c1nc(CCCCN)sc1C(=O)N[C@@H](C)c1nc(C)sc1C(N)=O	3.7
CC(=O)N[C@@H](CCCNC(=N)N)c1nc(C)sc1C(=O)N[C@@H](C)c1nc(CCCNC(=N)N)sc1C(=O)N[C@@H](C)c1nc(C)sc1C(=O)N[C@@H](CCCNC(=N)N)c1nc(C)sc1C(=O)N[C@@H](C)c1nc(CCCNC(=N)N)sc1C(=O)N[C@@H](C)c1nc(C)sc1C(=O)N[C@@H](CCCNC(=N)N)c1nc(C)sc1C(=O)N[C@@H](C)c1nc(CCCNC(=N)N)sc1C(=O)N[C@@H](C)c1nc(C)sc1C(N)=O	9.4
CC(=O)N[C@@H](CCCNC(=N)N)c1nc(C)sc1C(=O)N[C@@H](C)c1nc(CCCNC(=N)N)sc1C(=O)N[C@@H](C)c1nc(C)sc1C(=O)N[C@@H](CCCNC(=N)N)c1nc(C)sc1C(=O)N[C@@H](C)c1nc(CCCNC(=N)N)sc1C(=O)N[C@@H](C)c1nc(C)sc1C(=O)N[C@@H](CCCNC(=N)N)c1nc(C)sc1C(=O)N[C@@H](C)c1nc(CCCNC(=N)N)sc1C(=O)N[C@@H](C)c1nc(C)sc1C(=O)N[C@@H](CCCNC(=N)N)c1nc(C)sc1C(=O)N[C@@H](C)c1nc(CCCNC(=N)N)sc1C(=O)N[C@@H](C)c1nc(C)sc1C(N)=O	6.2
CC(=O)N[C@@H](CCCCN)c1nc(C)sc1C(=O)N[C@@H](C)c1nc(C)sc1C(=O)N[C@@H](C)c1nc(CCCCN)sc1C(=O)N[C@@H](C)c1nc(C)sc1C(=O)N[C@@H](C)c1nc(CCCCN)sc1C(=O)N[C@@H](CCCCN)c1nc(C)sc1C(=O)N[C@@H](C)c1nc(CCCCN)sc1C(=O)N[C@@H](CCCCN)c1nc(C)sc1C(=O)N[C@@H](C)c1nc(C)sc1C(=O)N[C@@H](C)c1nc(C)sc1C(=O)N[C@@H](C)c1nc(CCCCN)sc1C(=O)N[C@@H](CCCCN)c1nc(C)sc1C(N)=O	50
